# protocol text: Phase 1 study Part 2: single-dose plasma pharmacokinetics, relative bioavailability (tablet vs AIC) and food effect in healthy subjects
# Type: in vivo, human
# stated conditions: human, plasma, po, 200 mg, Treatment E: 1×200 mg formulated tablet, single oral dose, fasted; geometric mean (geometric CV%), N=12; read-out: t1/2 (terminal elimination half-life) (converted)
observed property: half-life (min)
Only the number, expressed in min, is required.

Given the entry C[C@@H]1CC[C@@H](Nc2nc(NC(C)(C)C)ncc2C(N)=O)C[C@H]1O , report its measured half-life.
1210

---

# protocol text: Phase 1 study Part 2: single-dose plasma pharmacokinetics, relative bioavailability (tablet vs AIC) and food effect in healthy subjects
# Format: in vivo, human
# stated conditions: human, plasma, oral, 200 mg, Comparison E/D: 200 mg tablet fasted vs 2×100 mg AIC fasted; read-out: tmax, Median Difference
# Protocol: Part 2 was an open label, randomized, crossover study with three periods. The study consisted of a screening phase (Days −21 to −2), baseline (Day −1), three treatment/assessment periods, and a follow up phone call. Twelve eligible subjects reported to the study center on Day −1 of Period 1 for confinement and baseline assessments. All subjects fasted overnight for at least 10 hours prior to dosing. […] AUCt: AUC from time zero to the last quantifiable concentration. […]
observed property: Tmax

Given the entry C[C@@H]1CC[C@@H](Nc2nc(NC(C)(C)C)ncc2C(N)=O)C[C@H]1O , report its measured Tmax.
36 s
